Data credit: patent US20240409645A1

Each record here notes measured P.E. binding ELISA OD.
Target: T1, human IL-2Rβ (human, UniProt P14784 27-240, limits assumed)
T1 construct: Recombinant protein, coated (ELISA) or immobilised on CM5 (SPR); also called hu IL-2R; interleukin 2 receptor β-chain
T1 sequence: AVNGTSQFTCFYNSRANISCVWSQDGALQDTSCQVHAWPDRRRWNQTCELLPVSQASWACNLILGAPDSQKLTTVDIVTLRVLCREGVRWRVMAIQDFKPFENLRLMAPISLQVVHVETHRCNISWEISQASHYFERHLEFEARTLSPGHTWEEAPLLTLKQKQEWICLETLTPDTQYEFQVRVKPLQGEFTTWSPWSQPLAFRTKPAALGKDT
Test: P.E. binding ELISA on coated protein
Quick note: give the figure in OD450 nm, leave out the unit.

binder="FJ1427_P035MP03G07 (VHH, soluble VHH in periplasmic extract; also called clone nr) VHH: QVQLVESGGGLVQAGGSLRLSCAASGRTFSSDAKGWFRQAPGKEREFVAAITWAGRGTDYADSVKGRFTITRDNAKNMVYLQMSNLKPEDTAVYYCALNPEGVIGPYFRNSNRYNYWGQGTQVTVSS" reading_unit="OD450 nm" numeric_result=0.201

Could you now consider this next binder?
Lookup: For FJ1427_P035MP03F06 (VHH, soluble VHH in periplasmic extract; also called clone nr) VHH: QVQLQESGGGLVQTGGSLRLSCAASGSQFINDVMGWYRQVPGKQRELVADMDDTGSTKYADSVKGRFTILRDSVKNTAYLQMSNLKPEDTGVYYCKAGLWIKGRHSDYWGQGTQVTVSS , what is its reported P.E. binding ELISA OD?
Found: 0.434
